Target: SARS-CoV-2 MPro (main protease, 3CL protease, Nsp5) (Severe acute respiratory syndrome coronavirus 2)
Construct: gene rep
Assay: fluorogenic NSP7 peptide cleavage, […] h preincubation, […] °C
Format: biochemical
Field: class. Source value: IC50. Ranges: 1 = under 40 µM, 2 = from 40 µM up to 100 µM, 3 = 100 µM and over

Problem: Band of O=Cc1ncc(Br)cc1OCc1ccc2ccccc2c1 ['7356] ?
Solution: 1

Problem: Field entry: N#CC(C(=O)c1cccnc1)c1cc(F)cc(F)c1 (stereo not shown) ['0431]
Solution: 2

Problem: Same thing, different molecule: O=C1NC(c2cccc3ccccc23)C(=O)N1c1cncc2ccccc12 (stereo not shown) [Z4929615577]
Solution: 1

Problem: Next molecule up: C[C@H]1CN(C(=O)Nc2cncc3ccccc23)Cc2ccccc2O1 [SG-0001]
Solution: 2

Problem: Item: O=Cc1ncc(Br)cc1OCc1cccc([N+](=O)[O-])c1 ['9112]
Solution: 1

Problem: One more molecule: COC(=O)c1cc(C#N)c(=O)n(Cc2cccc(F)c2Cl)c1 [ZINC338540162]
Solution: 1

Problem: Check COc1ccc(Br)cc1C(=O)C(=O)Nc1cncc(C)c1 [Z1355254448] too.
Solution: 3

Problem: Ok, now Cc1cc(C(=O)C(=O)Nc2cnccc2F)ccc1F [ZINC5420738300]
Solution: 3

All values here come from paper doi:10.1101/2022.07.05.498881v1.
